experiment_description: Clearance in mouse at 2 mg/kg, iv
Type: ADME, organism-based
Parameters: dose 2 mg/kg, route intravenous
condition_set: in vivo
reported_property: clearance (mL/min/kg)
Answers are plain numbers, in mL/min/kg.

`Nc1nccn2c1c(-c1ccc3ccc(-c4ccccc4)nc3c1F)nc2[C@H]1CC[C@H](CO)CC1` has a reported clearance of 197

###

experimental_target: Cytochrome P450 2D6 (Homo sapiens, UniProt P10635)
Sequence (P10635 whole entry): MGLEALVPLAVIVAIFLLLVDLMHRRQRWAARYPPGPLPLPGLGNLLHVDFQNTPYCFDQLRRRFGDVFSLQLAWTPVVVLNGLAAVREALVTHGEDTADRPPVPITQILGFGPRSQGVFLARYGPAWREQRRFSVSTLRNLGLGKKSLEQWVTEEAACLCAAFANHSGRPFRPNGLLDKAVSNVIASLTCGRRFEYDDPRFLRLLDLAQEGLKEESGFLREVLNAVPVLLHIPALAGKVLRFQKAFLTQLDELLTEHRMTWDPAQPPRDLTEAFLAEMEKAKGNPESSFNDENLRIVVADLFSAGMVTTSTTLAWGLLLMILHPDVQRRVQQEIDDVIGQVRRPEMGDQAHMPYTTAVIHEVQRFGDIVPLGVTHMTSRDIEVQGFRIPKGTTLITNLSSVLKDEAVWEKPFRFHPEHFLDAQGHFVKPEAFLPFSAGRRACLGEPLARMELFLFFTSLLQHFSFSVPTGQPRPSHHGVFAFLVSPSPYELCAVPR
reported_property: IC50

`Nc1nccn2c1c(-c1ccc3ccc(-c4ccccc4)nc3c1F)nc2[C@H]1CC[C@H](C(=O)Nc2nc3ccccc3[nH]2)CC1` has a reported IC50 of > 20 µM
